Would you mind telling me the reported interaction score of each entry?
# SYSTEM_NAME: T1, P5mS
# T1 chain: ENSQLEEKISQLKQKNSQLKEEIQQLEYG
# RUN_DESCRIPTION: two-hybrid library CC1;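 also: natural log of median RNA to DNA barcode read ratio; higher means stronger binding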
# CONDITION_INFO: mean of both orientations
# output: bare number, no unit

Q: Using the record for KISQLKQKIQQLKQENQQLEEENSQLEYG [P4mS] , report its interaction score.
Result: -2.9

Q: Now the same for EIQQLEEEISQLEQKNSQLKEKNQQLKYG [P3mS]
Result: -2.69

Q: Now the same for SPEDKIAQLKQKIQALKQENQQLEEENAALEYG [P4]
Result: -2.91

Q: Now the same for SPEDEIQQLEEEIAQLEQKNAALKEKNQALKYG [P3]
Result: -2.66

Q: Now the same for ENQALEQEIAQLEQEIAALEQKNAQLKYG [P11]
Result: -2.74

Q: Now the same for ENSQLEEKISQLKQKNSRLKEEIARLEYGC [P5SC1]
Result: -2.78

Q: Now the same for ENARLEEKIRQLKQKNSQLKEEIQQLEYGC [P5SC2]
Result: -2.94
